System: DLD-1
experiment description: in vitro colon cancer cell growth inhibition (NCI screen)
Given measured cytotoxicity log GI50, output Satisfied if it is greater than or equal to -5 M and Not satisfied if not.

- O=C1c2ccccc2C(=O)c2[nH]c(Cc3ccccc3F)nc21 [Compound 4b]: Satisfied
- CCC(C)n1c(C)nc2c1C(=O)c1ccccc1C2=O (centres unmarked) [Compound 6]: Satisfied
- CC(=O)NC1=C(NCC(C)C)C(=O)c2ccccc2C1=O [Compound 31]: Satisfied
- Cc1ccc(Cn2c(C)nc3c2C(=O)c2ccccc2C3=O)cc1 [Compound 17]: Not satisfied
- Cc1nc2c(n1Cc1ccc(Cl)cc1)C(=O)c1ccccc1C2=O [Compound 20]: Not satisfied

###

System: PC-3
experiment description: in vitro prostate cancer cell growth inhibition (NCI screen)
As shown below, each of these molecules has a reported cytotoxicity log GI50 value.
attribute measured: cytotoxicity log GI50 (M)

- COc1cc(OC)cc(C(=O)NC2=C(Cl)C(=O)c3ccccc3C2=O)c1 [Compound 2h]: -6.24
- COc1ccc(C(=O)NC2=C(Cl)C(=O)c3ccccc3C2=O)cc1 [Compound 2g]: -5.90
- CCNC1=C(NC(=O)CC)C(=O)c2ccccc2C1=O [Compound 45]: -4.37
- O=C(NC1=C(Cl)C(=O)c2ccccc2C1=O)c1ccccc1 [Compound 2e]: -4.60
- CCNC1=C(NC(=O)c2ccc(F)cc2)C(=O)c2ccccc2C1=O [Compound 48]: -4.76
- CCCC(=O)NC1=C(NCC)C(=O)c2ccccc2C1=O [Compound 46]: -4.39
- Cc1nc2c(n1CCCl)C(=O)c1ccccc1C2=O [Compound 21]: -5.07
- CCNC1=C(NC(=O)CCl)C(=O)c2ccccc2C1=O [Compound 44]: -4.80
- CC(=O)NC1=C(NCCCl)C(=O)c2ccccc2C1=O [Compound 43]: -4.65
- CCNC1=C(NC(=O)c2ccc(OC)cc2)C(=O)c2ccccc2C1=O [Compound 49]: -4.48
- CCNC1=C(NC(=O)c2ccccc2)C(=O)c2ccccc2C1=O [Compound 47]: -4.74
- O=C(NC1=C(Cl)C(=O)c2ccccc2C1=O)c1ccc(F)cc1 [Compound 2f]: -5.95
- CCc1nc2c(n1CC)C(=O)c1ccccc1C2=O [Compound 23]: -4.73
- CCn1c(-c2ccccc2)nc2c1C(=O)c1ccccc1C2=O [Compound 25]: -4.99

###

Each entry below carries its recorded cytotoxicity log GI50.
Test system: 786-0
experiment description: in vitro renal cancer cell growth inhibition (NCI screen)
attribute measured: cytotoxicity log GI50 (M)

- Cc1ccc(Cn2c(C)nc3c2C(=O)c2ccccc2C3=O)cc1: -5.66
- CCn1c(-c2cc(OC)cc(OC)c2)nc2c1C(=O)c1ccccc1C2=O: -4.34
- Cc1nc2c(n1Cc1ccc(Cl)cc1)C(=O)c1ccccc1C2=O: -5.25

###

Test system: SK-MEL-2
experiment description: in vitro melanoma cell growth inhibition (NCI screen)
Please note: Yes applies when cytotoxicity log GI50 is -5 M or greater, and No applies otherwise.

* CCC(CC)n1c(C)nc2c1C(=O)c1ccccc1C2=O | Yes
* COC(=O)CCC(=O)NC1=C(Nc2ccc(OC)cc2)C(=O)c2ccccc2C1=O | No
* O=C(O)CCCc1nc2c(n1Cc1ccccc1)C(=O)c1ccccc1C2=O | Yes
* CCC(C)(C)NC1=C(NC(C)=O)C(=O)c2ccccc2C1=O | Yes
* O=C(O)CCc1nc2c(n1Cc1ccccc1)C(=O)c1ccccc1C2=O | Yes
* CCC(C)(C)n1c(C)nc2c1C(=O)c1ccccc1C2=O | Yes
* COC(=O)CCC(=O)NC1=C(Nc2ccccc2)C(=O)c2ccccc2C1=O | No
* COC(=O)CCC(=O)NC1=C(NCc2ccccc2)C(=O)c2ccccc2C1=O | Yes
* O=C(Cc1ccccc1F)NC1=C(Cl)C(=O)c2ccccc2C1=O | No
* NC1=C(NC(=O)Cc2ccccc2F)C(=O)c2ccccc2C1=O | Yes
* Cc1nc2c(n1CC(C)C)C(=O)c1ccccc1C2=O | Yes
* CC(=O)NC1=C(NCc2ccc(Cl)cc2)C(=O)c2ccccc2C1=O | No
* COC(=O)CCCC(=O)NC1=C(Nc2ccc(OC)cc2)C(=O)c2ccccc2C1=O | Yes
* Cc1nc2c(n1CCO)C(=O)c1ccccc1C2=O | Yes
* CCC(c1ccc(F)cc1)c1nc2c(n1CC)C(=O)c1ccccc1C2=O (stereo not drawn) | Yes

###

Test system: HCT-15
experiment description: in vitro colon cancer cell growth inhibition (NCI screen)
attribute measured: cytotoxicity log GI50 (M)

- CC(=O)NC1=C(NCC(C)C)C(=O)c2ccccc2C1=O: -4.75
- O=C1c2ccccc2C(=O)c2[nH]c(Cc3ccc(F)cc3)nc21: -5.19
- NC1=C(NC(=O)Cc2ccccc2F)C(=O)c2ccccc2C1=O: -4.62
- Cc1nc2c(n1CCN(C)C)C(=O)c1ccccc1C2=O: -4.89

###

System: T-47D
experiment description: in vitro breast cancer cell growth inhibition (NCI screen)
Everything with cytotoxicity log GI50 lower than -5 M is f; everything else, including exactly -5 M, is t.

• COc1ccc(-n2c(CCC(=O)O)nc3c2C(=O)c2ccccc2C3=O)cc1 = t
• CCn1c(-c2ccccc2)nc2c1C(=O)c1ccccc1C2=O = f
• CCCc1nc2c(n1CC)C(=O)c1ccccc1C2=O = t
• O=C(O)CCc1nc2c(n1-c1ccccc1)C(=O)c1ccccc1C2=O = t
• COc1ccc(C(=O)NC2=C(Cl)C(=O)c3ccccc3C2=O)cc1 = f
• CCNC1=C(NC(=O)c2ccccc2)C(=O)c2ccccc2C1=O = t
• COc1cc(OC)cc(C(=O)NC2=C(Cl)C(=O)c3ccccc3C2=O)c1 = f
• CCc1nc2c(n1CC)C(=O)c1ccccc1C2=O = t
• O=C(NC1=C(Cl)C(=O)c2ccccc2C1=O)c1ccccc1 = t
• CC(=O)NC1=C(NCCCl)C(=O)c2ccccc2C1=O = t
• O=C(NC1=C(Cl)C(=O)c2ccccc2C1=O)c1ccc(F)cc1 = f

###

Test system: HCT-15
experiment description: in vitro colon cancer cell growth inhibition (NCI screen)
Let's look at some molecules and their measured cytotoxicity log GI50.
attribute measured: cytotoxicity log GI50 (M)

* CCC(C)Cn1c(C)nc2c1C(=O)c1ccccc1C2=O (stereo not drawn) | -4.76
* CCCc1nc2c(n1CC)C(=O)c1ccccc1C2=O | -4.55
* CC(=O)NC1=C(NCC(C)(C)C)C(=O)c2ccccc2C1=O | -4.26
* CCNC1=C(NC(=O)c2ccccc2)C(=O)c2ccccc2C1=O | -4.73
* O=C(NC1=C(Cl)C(=O)c2ccccc2C1=O)c1ccc(F)cc1 | -6.27
* Cc1nc2c(n1Cc1ccc(Cl)cc1)C(=O)c1ccccc1C2=O | -5.97
* CCNC1=C(NC(=O)c2ccc(F)cc2)C(=O)c2ccccc2C1=O | -4.51
* COc1ccc(Cn2c(C)nc3c2C(=O)c2ccccc2C3=O)cc1 | -5.76
* O=C(Cc1ccc(F)cc1)NC1=C(Cl)C(=O)c2ccccc2C1=O | -5.64

###

Tested on: SNB-19
experiment description: in vitro CNS cancer cell growth inhibition (NCI screen)
attribute measured: cytotoxicity log GI50 (M)

- NC1=C(NC(=O)Cc2ccc(F)cc2)C(=O)c2ccccc2C1=O [Compound 3c]: -4.63
- NC1=C(NC(=O)Cc2ccccc2F)C(=O)c2ccccc2C1=O [Compound 3b]: -4.45
- O=C1c2ccccc2C(=O)c2[nH]c(Cc3ccccc3F)nc21 [Compound 4b]: -4.42
- COC(=O)CCC(=O)NC1=C(NCc2ccccc2)C(=O)c2ccccc2C1=O [Compound 55]: -4.66

###

Tested on: RPMI-8226
experiment description: in vitro leukemia cell growth inhibition (NCI screen)
Record Condition met whenever cytotoxicity log GI50 is at -5 M or higher; record Condition not met when lower.

* CCC(c1ccc(F)cc1)c1nc2c(n1CC)C(=O)c1ccccc1C2=O (stereo not drawn) | Condition met
* CCCc1nc2c(n1CC)C(=O)c1ccccc1C2=O | Condition met
* COc1cc(OC)cc(C(=O)NC2=C(Cl)C(=O)c3ccccc3C2=O)c1 | Condition not met
* O=C(O)CCCc1nc2c(n1Cc1ccccc1)C(=O)c1ccccc1C2=O | Condition met
* O=C(O)CCCc1nc2c(n1-c1ccccc1)C(=O)c1ccccc1C2=O | Condition met
* COc1ccc(-n2c(CCCC(=O)O)nc3c2C(=O)c2ccccc2C3=O)cc1 | Condition met

###

System: HOP-92
experiment description: in vitro non-small cell lung cancer cell growth inhibition (NCI screen)
attribute measured: cytotoxicity log GI50 (M)

* NC1=C(NC(=O)Cc2ccccc2F)C(=O)c2ccccc2C1=O [Compound 3b] | -4.65
* CCn1c(Cc2ccc(F)cc2)nc2c1C(=O)c1ccccc1C2=O [Compound 66] | -4.97
* CCC(CC)NC1=C(NC(C)=O)C(=O)c2ccccc2C1=O [Compound 34] | -6.47
* CCC(C)n1c(C)nc2c1C(=O)c1ccccc1C2=O (stereo not drawn) [Compound 6] | -4.66
* Cc1nc2c(n1CC(C)(C)C)C(=O)c1ccccc1C2=O [Compound 14] | -4.78
* COc1ccc(C(=O)NC2=C(Cl)C(=O)c3ccccc3C2=O)cc1 [Compound 2g] | -5.82
